tested on: PPARg homodimer (NR concentration 180 nM); test: PBM binding z-score (relative to random genomic background probes); higher = stronger binding; sequences stand for … in GC…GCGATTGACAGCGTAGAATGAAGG
Label scheme for PBM binding z-score: lower than 1 is F, 1 and above is T.

Recorded results for 3 sequences are shown here.
# residues, tested-on, answer-label
data = [
    ("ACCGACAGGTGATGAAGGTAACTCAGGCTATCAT", "PPARg homodimer (NR concentration 180 nM)", "F"),
    ("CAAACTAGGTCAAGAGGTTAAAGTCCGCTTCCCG", "PPARg homodimer (NR concentration 180 nM)", "T"),
    ("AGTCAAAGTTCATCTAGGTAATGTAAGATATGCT", "PPARg homodimer (NR concentration 180 nM)", "T"),
]

Q: Check if PBM binding z-score >= 1 (inclusive). Item: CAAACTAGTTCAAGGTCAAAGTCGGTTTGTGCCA
Ans: T

Q: Thanks! And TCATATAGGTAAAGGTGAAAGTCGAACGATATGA ?
Ans: T

Q: Please give the result for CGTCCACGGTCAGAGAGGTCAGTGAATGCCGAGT too.
Ans: T

Q: # repeat for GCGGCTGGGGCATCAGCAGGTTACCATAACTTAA
Ans: F

Q: Input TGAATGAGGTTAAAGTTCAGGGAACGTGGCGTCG
Ans: T

Q: And what about the sequence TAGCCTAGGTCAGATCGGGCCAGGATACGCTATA ?
Ans: F

###

system: PPARg:RXRa 90nM:30nM, anti-RXR (NR concentration 90 nM, RXRa partner concentration 30 nM); experiment: PBM binding z-score (relative to random genomic background probes); higher = stronger binding; sequences stand for … in GC…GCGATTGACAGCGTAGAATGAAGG
So basically every entry gets a class from its PBM binding z-score, ranges being c1: < 0.4; c2: ≥ 0.4 and < 5; c3: ≥ 5

# residues, answer-label
rows = [
    ("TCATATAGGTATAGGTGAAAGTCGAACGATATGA", "c2"),
    ("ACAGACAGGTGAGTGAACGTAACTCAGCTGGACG", "c1"),
    ("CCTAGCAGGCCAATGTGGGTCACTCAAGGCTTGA", "c2"),
]

Q: Form field 'band' for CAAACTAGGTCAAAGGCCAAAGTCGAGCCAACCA
Ans: c3

Q: Check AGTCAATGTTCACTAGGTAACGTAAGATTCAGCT too.
Ans: c1

Q: # iterate: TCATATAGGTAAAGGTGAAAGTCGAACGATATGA
Ans: c2

Q: Same thing, different sequence: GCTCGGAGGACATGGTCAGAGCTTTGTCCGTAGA
Ans: c1

Q: Again, but for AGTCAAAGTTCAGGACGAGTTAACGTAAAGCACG
Ans: c2

Q: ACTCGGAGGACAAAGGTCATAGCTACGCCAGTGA , same question.
Ans: c3

Q: Cool, now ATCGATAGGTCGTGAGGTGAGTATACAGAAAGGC
Ans: c2

Q: Ok, now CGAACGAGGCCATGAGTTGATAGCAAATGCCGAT
Ans: c2

Q: Same question for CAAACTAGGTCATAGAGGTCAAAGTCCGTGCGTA please.
Ans: c3

Numbers sourced from the supplement of paper PMC6555819.
